Target: CARTp binding site in PC12 cells (prospective CARTp receptor) (rat)
Assay: displacement of 125I-CART(61-102) from PC12 cells; range told of the group, this end tied by Table 2
Bridge positions count the residues as written; N and C are the ends. Square brackets hold non-standard residues; d marks the D form. Ends that are not written are not given here. * marks the point of attachment. Palmitoyl = CCCCCCCCCCCCCCCC(=O)*; Nle = CCCC[C@H](N)C(=O)O
Readout Label: pKi
The value called pKi is obtained by taking minus log10 of the concentration in mol/L.

Task: Param item = Palmitoyl-KYGQVP[Nle]ADAGEQCAVRKGARIGKLADCPRGTSCNSFLLKCL (disulfide 14-34, 28-41) [Palm-CART] ; retrieve measured pKi.
Result: 9.00
